Value source: patent US7709507B2

# Measured target: alpha2B receptor (Homo sapiens)
# Construct: expressed in transfected cells; host or cells: NIH-3T3 cells
# Sequence (P18089 1-450): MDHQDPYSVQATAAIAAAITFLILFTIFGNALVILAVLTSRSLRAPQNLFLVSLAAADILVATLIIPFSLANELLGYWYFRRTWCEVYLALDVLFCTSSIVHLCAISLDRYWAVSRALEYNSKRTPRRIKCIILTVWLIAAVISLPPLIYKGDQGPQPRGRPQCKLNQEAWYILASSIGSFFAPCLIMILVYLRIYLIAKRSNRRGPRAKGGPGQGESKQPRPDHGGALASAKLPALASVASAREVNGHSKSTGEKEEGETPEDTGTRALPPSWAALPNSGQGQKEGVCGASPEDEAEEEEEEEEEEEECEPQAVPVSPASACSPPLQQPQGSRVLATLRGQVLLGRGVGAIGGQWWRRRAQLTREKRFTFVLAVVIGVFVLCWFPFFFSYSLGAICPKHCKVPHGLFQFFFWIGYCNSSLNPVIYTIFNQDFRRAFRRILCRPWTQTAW
# Test method notes: Receptor Selection and Amplification Technology (RSAT) assay, Alpha 2B
# Format: cell-based
# Condition info: ratio of maximal effect to that of standard full agonist brimonidine (UK14304)
Endpoint: Alpha 2B IA (intrinsic activity)

O=C(NCCF)NC(Cc1ccccc1)c1ccc(O)cc1 (centres unmarked) | 0.82
Cc1cccc(C(Cc2cccnc2)NC(=O)NCCF)c1 (centres unmarked) | 0.95
O=C(NCCF)NC(Cc1ccncc1)c1cccc(Cl)c1 (centres unmarked) | 1.32
O=C(NCCF)NC(Cc1cc(F)ccc1F)c1cccnc1 (centres unmarked) | 1.02
O=C(NCCF)NC(Cc1ccc(F)cc1)c1cccnc1 (centres unmarked) | 0.49

A: O=C(NCCF)NC(Cc1ccccc1F)c1cccnc1 (centres unmarked)
B: O=C(NCCF)NC(Cc1ccccc1)C1CCCCC1 (centres unmarked)
C: O=C(NCCF)NC(Cc1ccccc1F)c1ccncc1 (centres unmarked)
Which order do these items take when sorted by rising Alpha 2B IA (intrinsic activity)? List them. // rank by listing labels in the order requested B, C, A

I: O=C(NCCF)NC(Cc1ccccc1F)c1ccccc1 (centres unmarked)
II: O=C(NCCF)NC(Cc1ccc(F)c(F)c1)c1ccncc1 (centres unmarked)
III: O=C(NCCF)NC(Cc1ccccc1)c1ccccc1Cl (centres unmarked)
Rank by Alpha 2B IA (intrinsic activity) (largest to smallest). Form field (ranking): labels in requested order. I, III, II

I: O=C(NCCF)NC(Cc1ccccc1)c1cccc(Cl)c1F (centres unmarked)
II: O=C(NCCF)NC(Cc1ccccc1)c1ccc(Cl)c(Cl)c1 (centres unmarked)
From the recorded data, which exceeds the other in Alpha 2B IA (intrinsic activity): I or II ? # answer = label of selected item I
(I: 1.0, II: 0.69)

a: Cc1cccc(CC(NC(=O)NCCF)c2cccc(Cl)c2)c1 (centres unmarked)
b: Cc1ccc(C(Cc2ccccc2)NC(=O)NCCF)cc1 (centres unmarked)
I need your help: which of the pair a , b has higher Alpha 2B IA (intrinsic activity)? Indicate your choice by writing its label. a
(a: 0.9, b: 0.53)
